Target: T1, EsCas13d, nuclease-dead (Eubacterium siraeum, UniProt B0MS50, R295A;H300A;R849A;H854A)
T1 sequence: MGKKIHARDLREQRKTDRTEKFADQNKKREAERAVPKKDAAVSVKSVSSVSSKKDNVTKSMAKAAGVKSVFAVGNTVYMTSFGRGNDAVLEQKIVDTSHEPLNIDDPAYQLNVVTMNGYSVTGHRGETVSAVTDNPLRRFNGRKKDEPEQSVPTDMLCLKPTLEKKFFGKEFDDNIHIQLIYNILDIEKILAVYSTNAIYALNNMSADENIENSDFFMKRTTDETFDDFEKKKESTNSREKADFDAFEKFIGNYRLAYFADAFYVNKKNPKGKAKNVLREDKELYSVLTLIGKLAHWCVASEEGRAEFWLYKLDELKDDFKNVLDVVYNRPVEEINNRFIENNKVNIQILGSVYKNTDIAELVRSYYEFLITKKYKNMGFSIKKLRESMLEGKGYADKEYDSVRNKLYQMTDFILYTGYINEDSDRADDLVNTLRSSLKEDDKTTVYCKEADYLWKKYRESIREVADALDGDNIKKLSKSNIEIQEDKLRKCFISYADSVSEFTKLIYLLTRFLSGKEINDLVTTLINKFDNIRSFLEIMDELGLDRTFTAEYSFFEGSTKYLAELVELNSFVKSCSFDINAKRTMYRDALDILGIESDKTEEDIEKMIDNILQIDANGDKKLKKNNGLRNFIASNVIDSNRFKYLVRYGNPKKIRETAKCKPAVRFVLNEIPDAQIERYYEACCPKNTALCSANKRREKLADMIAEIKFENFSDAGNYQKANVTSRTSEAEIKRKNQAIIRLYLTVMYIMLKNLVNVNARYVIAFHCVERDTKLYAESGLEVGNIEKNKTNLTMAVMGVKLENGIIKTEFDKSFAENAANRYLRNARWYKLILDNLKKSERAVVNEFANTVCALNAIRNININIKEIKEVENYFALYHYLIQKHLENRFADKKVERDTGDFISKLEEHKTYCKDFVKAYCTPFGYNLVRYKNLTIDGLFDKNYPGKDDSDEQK
Assay: crRNA (strand 1, pre-loaded); Mg2+; 40 mM Tris-HCl pH 7.5, 150 mM NaCl, 6 mM MgCl2, 1 mM DTT, 0.1% Tween-20, 0.2 mg/ml BSA; 25 C; 10 min per concentration, then washed
Details: tags: His6-TwinStrep-SUMO cleaved; N-terminal SNAP kept (SNAP-Surface 488); label: 3' end held by stalled T7 RNA polymerase
So I've got a bunch of binders here, and I need their Kd values.
Give bare numbers, in nM.

Quick batch: Kd for everything below.
1. target 1 C4G,G5A (mixed) RNA 1: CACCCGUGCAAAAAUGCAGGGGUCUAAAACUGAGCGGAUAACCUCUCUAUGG RNA 2: GGGAAUGGAUCCACAUCUACGAAUUCGUACCAUAGAGAGGUUAUCCAGUCACCGAGAUCGGAAGAGCACACGU
2. target 2 MT 5'PFS CUC 3'PFS UAC (mixed) RNA 1: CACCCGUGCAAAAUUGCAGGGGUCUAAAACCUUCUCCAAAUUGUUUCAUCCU RNA 2: GGGAAUGGAUCCACAUCUACGAAUUCCUCAGGAUGAAACAAUUUGGAGAAGUACAGAUCGGAAGAGCACACGU

83
2.32
